quantityMeasured: melting point

[[record]]
compound = "Cc1cc([C@H]2CN(C)C(=O)[C@@H]2C(=O)Nc2cccc(F)c2F)on1"
value = "144 to 148 °C"


Go through the items and report each one's melting point.
1. O=C1NC[C@H](c2cncs2)[C@H]1C(=O)Nc1cccc(F)c1F
2. O=C1NC[C@H](c2nccc(C(F)(F)F)n2)[C@H]1C(=O)Nc1ccccc1F
3. O=C1NC[C@H](c2cc(C(F)(F)F)ccn2)[C@H]1C(=O)Nc1ccccc1F
4. C=C(C)c1ccc([C@H]2CN(C)C(=O)[C@@H]2C(=O)Nc2cccc(F)c2F)cc1
5. CN1CC(c2cccc(Br)c2)C(C(=O)Nc2ccccc2F)C1=O (centres unmarked)

Response:
1. 111 to 142 °C
2. 166 to 170 °C
3. 115 to 119 °C
4. 126 to 130 °C
5. 142 to 146 °C

// for each compound below, give its melting point
1. O=C1NC[C@H](c2ccc(F)c(OC(F)(F)C(F)(F)Br)c2)[C@H]1C(=O)Nc1ccccc1F
2. COc1cccc([C@H]2CN(C)C(=O)[C@@H]2C(=O)Nc2cccc(F)c2F)c1F

Response:
133 to 137 °C
163 to 167 °C

###

- System: redroot pigweed (Amaranthus retroflexus)
- testName: Test G Post-Emergence Protocol
- Format: in vivo
- conditionParameters: Amaranthus retroflexus, post-emergence, 312 h, 62.5 g ai/ha, evaluated after 13 days, read-out: Pigweed, Redroot damage rating (100=total damage to plant; 0=no damage to plant)
- From the text: Seeds of corn (Zea mays), giant foxtail (Setaria faberi), barnyardgrass (Echinochloa crus-galli), ivy-leaved morning glory (Ipomoea hederacea), redroot pigweed (Amaranthus retroflexus) and velvetleaf (Abutilon theophrasti) were sown in standard soil in pots. […]
Can you tell me pest or weed control at 62.5 g/ha for the items I'm about to list?

Report pest or weed control at 62.5 g/ha for every entry below.
1. CN1C[C@@H](c2ccc(C(F)(F)F)cc2)[C@H](C(=O)Nc2[nH]ncc2C#N)C1=O (racemic)
2. CN1C[C@@H](c2ccc(C(F)(F)F)cc2)[C@H](C(=O)Nc2ncc(C(F)(F)F)s2)C1=O (racemic)

Response:
1: 0%; 2: 0%

Record pest or weed control at 62.5 g/ha for all entries; do not skip any.
1. Cc1cnc(NC(=O)[C@@H]2C(=O)N(C)C[C@H]2c2ccc(C(F)(F)F)cc2)cn1 (racemic)
2. CN1C[C@@H](c2ccc(C(F)(F)F)cc2)[C@H](C(=O)Nc2ccc(Cl)cc2F)C1=O (racemic)

Response:
1: 0%; 2: 50%

###

- System: blackgrass (Alopecurus myosuroides)
- testName: Test A postemergence
- Assay type: in vivo
- conditionParameters: Alopecurus myosuroides, post-emergence, 240 h, Postemergence, 31 g ai/ha; visual injury after approx. 10 d; 0 to 100 scale, 0 no effect, 100 complete control; read-out: Plant response rating, Blackgrass
quantityMeasured: pest or weed control at 31 g/ha
Enter the number, and then the unit.

Reference set (6 entries):
[[record]]
compound = "CC(C)Oc1cc([C@H]2CN(C)C(=O)[C@@H]2C(=O)Nc2ccccc2F)ccc1F"
value = "20%"

[[record]]
compound = "CN1C[C@H](c2csc3c2CCOC3)[C@@H](C(=O)Nc2ccccc2S(C)(=O)=O)C1=O"
value = "0%"

[[record]]
compound = "O=C1NC[C@H](c2csc3c2CCCC3)[C@H]1C(=O)Nc1cccc(F)c1F"
value = "0%"

[[record]]
compound = "CON1CC[C@H](c2ccc(C(F)(F)F)cc2)[C@@H](C(=O)Nc2ccc(F)c(F)c2F)C1=O"
value = "0%"

[[record]]
compound = "Cc1ccc([C@H]2CN(C)C(=O)[C@@H]2C(=O)Nc2cnccc2C(F)(F)F)cc1"
value = "0%"

[[record]]
compound = "CN1C[C@H](c2csc3c2CCOC3)[C@@H](C(=O)Nc2ccc(F)c(F)c2F)C1=O"
value = "0%"


For every item below, please supply its pest or weed control at 31 g/ha.
1. CN1C[C@H](c2cc(C(F)F)cs2)[C@@H](C(=O)Nc2cccc(F)n2)C1=O
2. CN1CC(c2cccc(C(F)(F)F)c2)C(C(=O)Nc2ccccc2CO)C1=O (centres unmarked)

Response:
1: 0%; 2: 0%
